# System: CAKI-1
# Protocol: NCI tumour cell line growth inhibition, 48 h
Activity calls are given as the source filed them. Rule as the data show it: active = GI50 up to about 1.1 µM and inactive = higher.
Catalogue of GI50 values

Worked set:
Compound | Readout name | Reported measurement
NC(=O)C(=O)C(c1ccccc1)S(=O)(=O)Cc1ccccc1 (stereo not given) | GI50 | > 100 µM (inactive)
CC(=O)/C(=C\NC(N)=S)C(=O)Nc1ccccc1C | GI50 | > 100 µM (inactive)
Oc1cc(Cc2ccccc2)c(Cc2ccccc2)cc1O | GI50 | > 10 µM (inactive)
CC(C)CC(NC(=O)C(COc1ccc([N+](=O)[O-])cc1)Cc1ccccc1)C(=O)Nc1ccccc1 (stereo not given) | GI50 | 28.2 µM (inactive)
COc1cc2c(cc1O)C(Cc1ccc(OCc3ccccc3)c(OCc3ccccc3)c1)N(C(=O)NCCc1ccccc1)CC2 (stereo not given) | GI50 | > 100 µM (inactive)

Report value: GI50, system: CAKI-1, compound: CC(=O)N(C(=O)CC(=O)N1N=C(c2ccccc2)C(/N=N/c2ccccc2[N+](=O)[O-])C1=O)c1ccc(Cl)cc1 (stereo not given)
> 10 µM (inactive)

Report value: GI50, system: CAKI-1, compound: Cc1ccc2[nH]/c(=N/S(=O)(=O)c3cc(C)c(Cl)cc3S)[nH]c2c1
48.1 µM (inactive)

Report value: GI50, system: CAKI-1, compound: O=C1Nc2ccccc2/C1=N/Nc1ccccc1[N+](=O)[O-]
21.6 µM (inactive)

Report value: GI50, system: CAKI-1, compound: C/C1=C\CC[C@@]2(C)O[C@@H]2C[C@@H]2[C@H](C/C(C)=C/CC1)OC(=O)C21CCN=N1 (stereo not given in full)
> 75 µM (inactive)

Report value: GI50, system: CAKI-1, compound: Clc1cccc(-c2sc(-c3cccs3)cc2Cc2cccs2)c1
> 10 µM (inactive)

Report value: GI50, system: CAKI-1, compound: O=C(c1ccccc1)c1c(C(F)(F)F)[n+]([O-])c2cc(F)c(F)cc2[n+]1[O-]
0.807 µM (active)

Report value: GI50, system: CAKI-1, compound: Oc1ccc(Cn2c(-c3ccc(O)cc3)nc3ccccc32)cc1
> 100 µM (inactive)

Report value: GI50, system: CAKI-1, compound: O=C1c2c(O)cccc2C(C2OC(CO)C(O)C(O)C2O)c2cc(CO)cc(O)c21 (stereo not given)
> 100 µM (inactive)

Report value: GI50, system: CAKI-1, compound: Nc1n[n+]([O-])c2ccc(Cl)cc2[n+]1[O-]
21.9 µM (inactive)

Report value: GI50, system: CAKI-1, compound: CC1CCC(=O)NCCCCC(=O)N1 (stereo not given)
> 100 µM (inactive)
